System: mu opiate receptor (MOR)
Assay: MOR agonist activity using [35S]GTPγS binding assay in striatal membranes
Format: biochemical
Settings: Series C-2; 1 μM compound + 1 μM β-FNA
Experimental: To assess the mu opiate receptor (MOR) agonist activity of positive compounds from the FLNA screening, compounds were tested in a [^35S]GTPγS binding assay using striatal membranes. […] The immunocomplexes so formed were collected by incubation at 25° C. for 30 minutes with 40 μl of agarose-conjugated protein A/G beads and centrifugation at 5,000×g at 4° C. for 5 minutes. […] The radioactivity in the suspension was determined by liquid scintillation spectrometry.
MEASURED PARAMETER: MOR agonist activity, percent [35S]GTPγS binding at the stated compound concentration (%)
Supply the numeric figure in %, leaving out any unit text.

Known MOR agonist activity, percent [35S]GTPγS binding at the stated compound concentration results, listed for orientation:
COMPOUND: C=CCN1CCC2(CC1)OCCN2S(=O)(=O)c1ccc(C(C)=O)cc1 [Compound C0096M]
NUMERIC RESULT: 127.1
//
COMPOUND: COc1ccc(S(=O)(=O)N2CCC3(CC2)NCCO3)cc1
NUMERIC RESULT: 21.2
//
COMPOUND: CCCCN1CCC2(CC1)OCCN2S(=O)(=O)c1ccc(OC)cc1 [Compound C0102M]
NUMERIC RESULT: 150.4
//
COMPOUND: CC(=O)c1ccc(S(=O)(=O)N2C(Cc3c[nH]cn3)C(=O)NC23CCNCC3)cc1 (stereo not drawn) [Compound C0119M]
NUMERIC RESULT: 35.1
//
COMPOUND: O=C1CN(Cc2ccccc2)C2(CCN(CC3CC3)CC2)N1 [Compound C0125M]
NUMERIC RESULT: 159.7

Noted for O=C1CN(Cc2ccccc2)C2(CCN(C3CCCCC3)CC2)N1 [C0137M(P7)] : its MOR agonist activity, percent [35S]GTPγS binding at the stated compound concentration reads 55.8

Noted for COc1ccc(S(=O)(=O)N2CCOC23CCN(C(C)C)CC3)cc1 [Compound C0133M] : its MOR agonist activity, percent [35S]GTPγS binding at the stated compound concentration reads 72.4

Noted for CS(=O)(=O)c1ccc(S(=O)(=O)N2CCOC23CCN(CC2CC2)CC3)cc1 [Compound C0126M] : its MOR agonist activity, percent [35S]GTPγS binding at the stated compound concentration reads 108.5

Noted for CC(=O)c1ccc(S(=O)(=O)N2CCOC23CCN(CC2CC2)CC3)cc1 [Compound C0095M] : its MOR agonist activity, percent [35S]GTPγS binding at the stated compound concentration reads 107.7
